Test system: HEK-293T
Assay: Multiplex assay against HEK293T
Format: toxicity, cell-based
Settings: human, 12 h, 10 µM, compound concentration 10 uM, replicate 1
Entries whose Population Normal (%) is below 80% take Fulfilled; entries at or above 80% take Not fulfilled.

CC1=C(C(=O)Nc2cc3cn[nH]c3cc2F)C(c2ccc(C(F)(F)F)cc2)CC(=O)N1 (stereo unspecified)
Not fulfilled
CC(C)CC(=O)Nc1[nH]nc2c1CN(C(=O)C1CCN(C)CC1)C2(C)C [PHA-793887]
Not fulfilled
COC(=O)C1=C(C)NC(C)=C(C(=O)OCCCN2CCC(c3ccccc3)(c3ccccc3)CC2)[C@H]1c1cccc([N+](=O)[O-])c1 [NIGULDIPINE]
Not fulfilled
C=CC(=O)Nc1ccc2[nH]c(=O)n(C3CCN(Cc4ccc(-c5nc6cc[nH]c(=O)c6cc5-c5ccccc5)cc4)CC3)c2c1 [Borussertib]
Not fulfilled
CC(C)NC(=O)N1CC[C@H](NC2=Nc3cc(F)ccc3N(CC(F)F)c3ccc(Cl)cc32)C1
Fulfilled

###

The following molecules are shown together with reported Population Mitochondria Different-Phenotype (%) values.
Tested on: U2OS
Assay: Multiplex assay against U2OS
Type: toxicity, cell-based
Conditions: human, 24 h, 1 µM, compound concentration 1 uM, replicate 1
measure: Population Mitochondria Different-Phenotype (%)

Cc1nc(N2CC[C@H](O)C2)ncc1-c1cc(C(F)(F)F)cc2[nH]ncc12
25%
COc1cc2ncn(-c3cc(OCc4ccccc4C(F)(F)F)c(C(N)=O)s3)c2cc1OC [GW843682X]
22%
CC(C)Oc1ccccc1C(=O)Nc1ccccc1C(=O)Nc1cccc(S(=O)(=O)C(F)(F)F)c1
48%
CCc1ccc(OCc2ccccc2C(=O)Nc2ccc3nc(C)cc(N)c3c2)cc1.Cl
94%
CN1CCN(Cc2ccc(Nc3ncc(Cl)c(Nc4ccccc4S(=O)(=O)N(C)C)n3)cc2)CC1 [DUBERMATINIB]
14%
Cc1ccc2c(c1)c1c(n2CCc2ccc(C)nc2)CCN(C)C1 [LATREPIRDINE]
38%
O=c1[nH]c2ccccc2n1C1CCN(Cc2ccc(-c3[nH]c4cc5ncnc5cc4nc3-c3ccccc3)cc2)CC1
12%
C=CC(=O)Nc1cccc(Oc2nc(Nc3ccc(N4CCN(C)CC4)cc3OC)ncc2Cl)c1
100%
Cc1cccc(CN2CCN(C(c3ccccc3)c3ccc(Cl)cc3)CC2)c1.Cl.Cl (centres undefined)
8%

###

System: HEK-293T
Assay: Multiplex assay against HEK293T
Format: toxicity, cell-based
Details: human, 12 h, 1 µM, compound concentration 1 uM, replicate 1
measure: Population Fragmented Nuclei (%)

COc1cc2ncn(-c3cc(OCc4ccccc4C(F)(F)F)c(C(N)=O)s3)c2cc1OC [GW843682X]
14
CCc1ccc(OCc2ccccc2C(=O)Nc2ccc3nc(C)cc(N)c3c2)cc1.Cl
28
CC(C)Oc1ccccc1C(=O)Nc1ccccc1C(=O)Nc1cccc(S(=O)(=O)C(F)(F)F)c1
10
CNC(=O)Nc1ccc2c(c1)[C@@]1(CC2)OC(=O)N(CC(=O)N(Cc2ccc(F)cc2)[C@@H](C)C(F)(F)F)C1=O
17
CC(C)c1noc(N2CCC(COc3ccc(-c4ccc(S(C)(=O)=O)cc4)nc3)CC2)n1
14

###

Test system: Fibroblast
Assay: Multiplex assay against human fibroblast
Assay type: toxicity, cell-based
Details: 48 h, 10 µM, compound concentration 10 uM, replicate 1
measure: Population Normal (%)

CN1CCN(Cc2ccc(Nc3ncc(Cl)c(Nc4ccccc4S(=O)(=O)N(C)C)n3)cc2)CC1 [DUBERMATINIB]
86
O=c1cc(N2CCOCC2)oc2c(-c3cccc4c3sc3ccccc34)cccc12
87
Cc1cccc(CN2CCN(C(c3ccccc3)c3ccc(Cl)cc3)CC2)c1.Cl.Cl (centres undefined)
87
C[C@]12CC[C@@H]3c4ccc(O)cc4CC[C@H]3[C@@H]1CC[C@@H]2O [ESTRADIOL]
86
CC(C)OC(=O)N1CCC(Oc2ncnc3c2cnn3-c2ccc(S(C)(=O)=O)cc2F)CC1
82
CC(C)NC(=O)N1CC[C@H](NC2=Nc3cc(F)ccc3N(CC(F)F)c3ccc(Cl)cc32)C1
80
CCOC(=O)Nc1cc(-c2ccc(C)c(NS(C)(=O)=O)c2)nn2c(C)nnc12
83
CNC(=O)Nc1ccc(-c2nc(N3CC4CCC(C3)O4)c3cnn(C4CCC5(CC4)OCCO5)c3n2)cc1
80
Cc1ccc2c(c1)c1c(n2CCc2ccc(C)nc2)CCN(C)C1 [LATREPIRDINE]
68

###

Tested on: HEK-293T
Experiment: Multiplex assay against HEK293T
Type: toxicity, cell-based
Details: human, 12 h, 10 µM, compound concentration 10 uM, replicate 1
Entries whose Population Normal (%) is below 80% take Met; entries at or above 80% take Not met.

Cc1ccc2c(c1)c1c(n2CCc2ccc(C)nc2)CCN(C)C1 [LATREPIRDINE]
Met
C[C@]12CC[C@@H]3c4ccc(O)cc4CC[C@H]3[C@@H]1CC[C@@H]2O
Not met
CC(C)(C)NC[C@H](O)COc1nsnc1N1CCOCC1
Not met
CCc1ccc(OCc2ccccc2C(=O)Nc2ccc3nc(C)cc(N)c3c2)cc1.Cl
Met
Cc1ccccc1C(c1ccccc1C)N1C2CCC1CC(O)(c1ccccc1)C2 (centres undefined)
Not met
Cc1cccc(CN2CCN(C(c3ccccc3)c3ccc(Cl)cc3)CC2)c1.Cl.Cl (centres undefined)
Not met

###

Test system: HEK-293T
Test: Multiplex assay against HEK293T
Format: toxicity, cell-based
Conditions: human, 12 h, 10 µM, compound concentration 10 uM, replicate 1
measure: Population Pyknosed Nuclei (%)

COc1ccccc1CN[C@H]1C2CCN(CC2)[C@H]1C(c1ccccc1)c1ccccc1
63
C=CC(=O)Nc1ccc2[nH]c(=O)n(C3CCN(Cc4ccc(-c5nc6cc[nH]c(=O)c6cc5-c5ccccc5)cc4)CC3)c2c1
33
Cc1c[nH]c2nccc(Oc3c(F)cc(Nc4cc(Cl)nc(N)n4)cc3F)c12
44
CN(c1ccccc1CNc1nc(Nc2ccc3c(c2)CC(=O)N3)ncc1C(F)(F)F)S(C)(=O)=O
35
COc1cc2ncn(-c3cc(OCc4ccccc4C(F)(F)F)c(C(N)=O)s3)c2cc1OC [GW843682X]
33
COc1ccc(-c2ccc3ncc4c(c3c2)n(-c2ccc(N3CCNCC3)c(C(F)(F)F)c2)c(=O)n4C)cn1.O=C(O)/C=C\C(=O)O
70

###

Test system: HEK-293T
Test: Multiplex assay against HEK293T
Assay type: toxicity, cell-based
Conditions: human, 12 h, 1 µM, compound concentration 1 uM, replicate 2
Decision: Population Apoptotic (%) >= 20% yields YES, all other cases yield NO.

C=CC(=O)Nc1ccc2[nH]c(=O)n(C3CCN(Cc4ccc(-c5nc6cc[nH]c(=O)c6cc5-c5ccccc5)cc4)CC3)c2c1 [Borussertib]
NO
CCc1ccc(OCc2ccccc2C(=O)Nc2ccc3nc(C)cc(N)c3c2)cc1.Cl
YES
Cc1ccc(C)c(Oc2ccncc2C(=O)N2CCN(C3CC3)c3ccccc32)c1
NO
CC(C)c1noc(N2CCC(COc3ccc(-c4ccc(S(C)(=O)=O)cc4)nc3)CC2)n1 [GSK-1292263]
NO
C[C@]12CC[C@@H]3c4ccc(O)cc4CC[C@H]3[C@@H]1CC[C@@H]2O [ESTRADIOL]
NO
COc1ccccc1CN[C@H]1C2CCN(CC2)[C@H]1C(c1ccccc1)c1ccccc1 [CP-96345]
NO
COc1cc2ncn(-c3cc(OCc4ccccc4C(F)(F)F)c(C(N)=O)s3)c2cc1OC [GW843682X]
YES
CCc1nn(CCCN2CCN(c3cccc(Cl)c3)CC2)c(=O)n1CCOc1ccccc1.Cl [NEFAZODONE HYDROCHLORIDE]
NO

###

Test system: HEK-293T
Test: Multiplex assay against HEK293T
Type: toxicity, cell-based
Details: human, 48 h, 1 µM, compound concentration 1 uM, replicate 1
measure: Population Mitochondria Different-Phenotype (%)

CC(C)OC(=O)N1CCC(Oc2ncnc3c2cnn3-c2ccc(S(C)(=O)=O)cc2F)CC1
21
CCc1ccc(OCc2ccccc2C(=O)Nc2ccc3nc(C)cc(N)c3c2)cc1.Cl
66
O=c1cc(N2CCOCC2)oc2c(-c3cccc4c3sc3ccccc34)cccc12
44
CC(C)Oc1ccccc1C(=O)Nc1ccccc1C(=O)Nc1cccc(S(=O)(=O)C(F)(F)F)c1
66
COc1cc(Nc2nccc(-c3cnn4nc(OC)ccc34)n2)cc(C(F)(F)F)c1
41
Cc1ccc2c(c1)c1c(n2CCc2ccc(C)nc2)CCN(C)C1 [LATREPIRDINE]
62
CC1=C(C(=O)Nc2cc3cn[nH]c3cc2F)C(c2ccc(C(F)(F)F)cc2)CC(=O)N1 (configuration not stated)
23
Cc1c[nH]c2nccc(Oc3c(F)cc(Nc4cc(Cl)nc(N)n4)cc3F)c12
24
CC(C)c1noc(N2CCC(COc3ccc(-c4ccc(S(C)(=O)=O)cc4)nc3)CC2)n1
32
CC(C)(C)NC[C@H](O)COc1nsnc1N1CCOCC1
23
CNC(=O)Nc1ccc(-c2nc(N3CC4CCC(C3)O4)c3cnn(C4CCC5(CC4)OCCO5)c3n2)cc1
66
CCCSc1nc(N[C@@H]2C[C@H]2c2ccc(F)c(F)c2)c2nnn([C@@H]3C[C@H](OCCO)[C@@H](O)[C@H]3O)c2n1
51
